- Test system: Pseudomonas aeruginosa
- Assay Name: Antimicrobial activity against Pseudomonas aeruginosa after 24 hr by two-fold serial dilution method
- Assay type: functional
Recorded MIC values for a group of compounds are listed next.

Compound	Unit Name	MIC
CCC1C(c2ccccc2)OC(c2ccccc2)CC12NC(=S)NN2c1ccccc1 (stereo unspecified)	µg/mL	12.5
S=C1NN(c2ccccc2)C2(CC(c3ccccc3)OC(c3ccccc3)C2)N1 (stereo unspecified)	µg/mL	25
S=C1NNC2(CC(c3ccccc3)OC(c3ccccc3)C2)N1 (stereo unspecified)	µg/mL	100
CC1C(c2ccccc2)OC(c2ccccc2)CC12NC(=S)NN2c1ccccc1 (stereo unspecified)	µg/mL	25
CCC1C(c2ccccc2)OC(c2ccccc2)CC12NNC(=S)N2 (stereo unspecified)	µg/mL	100
CC1C(c2ccccc2)OC(c2ccccc2)CC12NNC(=S)N2 (stereo unspecified)	µg/mL	50

---

- Test system: Staphylococcus aureus
- Assay Name: Antimicrobial activity against Staphylococcus aureus after 24 hr by two-fold serial dilution method
- Type: functional

Compound	Unit Name	MIC
CC1C(c2ccccc2)OC(c2ccccc2)CC12NC(=S)NN2c1ccccc1 (stereo unspecified)	µg/mL	25
S=C1NN(c2ccccc2)C2(CC(c3ccccc3)OC(c3ccccc3)C2)N1 (stereo unspecified)	µg/mL	50
CCC1C(c2ccccc2)OC(c2ccccc2)CC12NC(=S)NN2c1ccccc1 (stereo unspecified)	µg/mL	25
CC1C(c2ccccc2)OC(c2ccccc2)CC12NNC(=S)N2 (stereo unspecified)	µg/mL	25
CCC1C(c2ccccc2)OC(c2ccccc2)CC12NNC(=S)N2 (stereo unspecified)	µg/mL	50
S=C1NNC2(CC(c3ccccc3)OC(c3ccccc3)C2)N1 (stereo unspecified)	µg/mL	12.5

---

Recorded MIC values for a group of compounds are listed next.
- System: Candida albicans
- Assay Name: Antimicrobial activity against Candida albicans after 72 to 96 hr by two-fold serial dilution method
- Format: functional
Measurement Label: MIC

Compound	Result
CCC1C(c2ccccc2)OC(c2ccccc2)CC12NNC(=S)N2 (configuration not stated)	100 µg/mL
S=C1NNC2(CC(c3ccccc3)OC(c3ccccc3)C2)N1 (configuration not stated)	200 µg/mL
S=C1NN(c2ccccc2)C2(CC(c3ccccc3)OC(c3ccccc3)C2)N1 (configuration not stated)	50 µg/mL
C[C@@H]1[C@H](O)[C@@H](C)/C=C/C=C/C=C/C=C/C=C/C=C/C=C/[C@H](O[C@@H]2O[C@H](C)[C@@H](O)[C@H](N)[C@@H]2O)C[C@@H]2O[C@](O)(C[C@@H](O)C[C@@H](O)[C@H](O)CC[C@@H](O)C[C@@H](O)CC(=O)O[C@H]1C)C[C@H](O)[C@H]2C(=O)O	25 µg/mL
CCC1C(c2ccccc2)OC(c2ccccc2)CC12NC(=S)NN2c1ccccc1 (configuration not stated)	25 µg/mL
CC1C(c2ccccc2)OC(c2ccccc2)CC12NNC(=S)N2 (configuration not stated)	100 µg/mL
CC1C(c2ccccc2)OC(c2ccccc2)CC12NC(=S)NN2c1ccccc1 (configuration not stated)	50 µg/mL
